- system: d-enCas12a-Ultra (Acidaminococcus sp., UniProt U2UMQ6 1-1307, E174R;S542R;K548R;M537R;F870L;D908A;E993A;D1235A)
- test_description: Spec-seq (native PAGE EMSA with sequencing of bound and unbound); 25 mM Tris-HCl pH 7.4, 150 mM KCl, 5 mM MgCl2, 10% glycerol, 1 mM DTT, 40 ng/uL salmon sperm DNA; 400 nM Cas12a, 480 nM crRNA, 50 nM library, 37 C 1 h; native PAGE at room temperature; high values mean tight binding;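 further: relative affinity from the bound to unbound sequence frequency ratio in Spec-seq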
- condition_parameters: protein: recombinant
readout_kind: binding signal (lnKA)
Supply the numeric figure in lnKA, leaving out any unit text.

Below are worked cases with known answers.
>>> value_observed("GTTG (dsDNA) DNA 1: GCTATCTAGTGCTCAGTACGCACTGGTTGAGGAAACTTCTGGCAGGACCAGGTCATGAGATCGGAAGAGCACACGTCTGAACTCCAGTCA DNA 2: TGACTGGAGTTCAGACGTGTGCTCTTCCGATCTCATGACCTGGTCCTGCCAGAAGTTTCCTCAACCAGTGCGTACTGAGCACTAGATAGC RNA: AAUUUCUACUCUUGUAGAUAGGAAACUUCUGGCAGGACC")
-0.361
>>> value_observed("CCTA (dsDNA) DNA 1: GCTATCTAGTGCTCAGTACGCACTGCCTAAGGAAACTTCTGGCAGGACCAGGTCATGAGATCGGAAGAGCACACGTCTGAACTCCAGTCA DNA 2: TGACTGGAGTTCAGACGTGTGCTCTTCCGATCTCATGACCTGGTCCTGCCAGAAGTTTCCTTAGGCAGTGCGTACTGAGCACTAGATAGC RNA: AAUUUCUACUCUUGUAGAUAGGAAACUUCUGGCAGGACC")
-2.2

Moving on to the next binder.
Entry TTAA (dsDNA) DNA 1: GCTATCTAGTGCTCAGTACGCACTGTTAAAGGAAACTTCTGGCAGGACCAGGTCATGAGATCGGAAGAGCACACGTCTGAACTCCAGTCA DNA 2: TGACTGGAGTTCAGACGTGTGCTCTTCCGATCTCATGACCTGGTCCTGCCAGAAGTTTCCTTTAACAGTGCGTACTGAGCACTAGATAGC RNA: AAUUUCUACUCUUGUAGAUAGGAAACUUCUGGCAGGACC : reported binding signal = ?
-1.68
